Give inhibition at 0.3 µM for every item shown.
# study_system: recombinant human PAI-1 (Homo sapiens, UniProt P05121)
# Sequence (P05121 24-402): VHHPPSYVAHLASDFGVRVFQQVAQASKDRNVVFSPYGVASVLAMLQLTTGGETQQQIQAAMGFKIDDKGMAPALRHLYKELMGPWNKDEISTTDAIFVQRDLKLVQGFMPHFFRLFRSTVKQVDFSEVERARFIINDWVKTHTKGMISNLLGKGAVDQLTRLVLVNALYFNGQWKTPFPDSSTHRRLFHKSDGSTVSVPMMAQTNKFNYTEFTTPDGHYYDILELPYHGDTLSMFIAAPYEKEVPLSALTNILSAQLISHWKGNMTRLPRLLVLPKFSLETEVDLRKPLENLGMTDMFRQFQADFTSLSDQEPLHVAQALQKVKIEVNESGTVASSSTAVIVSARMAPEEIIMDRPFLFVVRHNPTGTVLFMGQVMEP
# assay_explanation: Test Example 4: Human PAI-1 Inhibitory Activity (amount of PAI-1 bound to plate-coated one-chain tPA, ELISA)
# Format: biochemical
# Set-up: purchased Molecular Innovations, Inc
# protocol_conditions: human PAI-1 bound to tPA; Compound Concentration 0.3µM; read-out: Inhibition Rate of PAI-1 Activity (%)
# Protocol: 100 µl of tPA solution, where one-chain recombinant tPA (hereinafter reffered to as tPA; American diagnostica, inc.) had been diluted with Buffer A to acheive a concentration of 10 µg/ml, was added to each well of a 96-well plate (Nunc Maxisorp), and the plate was incubated for one night at 4 °C to be coated with tPA. […]
Answers are plain numbers, in %.

Here's what some known entries look like.
CC(C)(C)c1ccc(Oc2cc(Oc3ccc(OC(F)(F)F)cc3)ccc2CCC(=O)O)cc1 | 2
CCC(CC)Oc1ccc(N(Cc2ccc(C(C)(C)C)cc2)C(=O)C(=O)O)cc1-c1ccc(OC(F)(F)F)cc1 | 21
CC(C)(C)c1ccc(Oc2ccc(Oc3ccc(OC(F)(F)F)cc3)cc2CCC(=O)O)cc1 | 7

Go through the list and state inhibition at 0.3 µM for each entry.
1. CC(C)(C)c1ccc(CN(C(=O)C(=O)O)c2cc(-c3ccc(OC(F)(F)F)cc3)cc(C(F)(F)F)c2)cc1
2. COc1cc(OC)c(N(Cc2ccc(C(C)(C)C)cc2)C(=O)C(=O)O)cc1-c1ccc(OC(F)(F)F)cc1
3. CC(C)(C)c1ccc(Oc2ccc(-c3ccc(OC(F)(F)F)cc3)cc2CCC(=O)O)cc1
4. CCCCCOc1ccc(-c2ccc(OC(F)(F)F)cc2)cc1N(Cc1ccc(C(C)(C)C)cc1)C(=O)C(=O)O
5. CC(C)(C)c1ccc(COc2ccc(-c3ccc(OC(F)(F)F)cc3)cc2CCC(=O)O)cc1
6. CC(C)(C)c1ccc(COc2cc(Oc3ccc(OC(F)(F)F)cc3)ccc2CCC(=O)O)cc1

6
0
7
6
9
20

---

Kindly state inhibition at 3 µM for each of the entries shown.
# study_system: recombinant human PAI-1 (Homo sapiens)
# assay_explanation: Test Example 2: Human PAI-1 Inhibitory Activity (pH 7.4 HEPES buffer, 10 minutes incubation with two-chain tPA)
# Assay type: biochemical
# Parameters: purchased Molecular Innovations, Inc
# protocol_conditions: read-out: Inhibition Rate of PAI-1 Activity (%)

# example entries with known answers
CCCCCOc1ccc(-c2ccc(OC(F)(F)F)cc2)cc1N(CCCCc1ccccc1)CC(=O)O | 92%
CCCCCCCCCCN(C(=O)C(=O)O)c1ccc(-c2ccc(OC(F)(F)F)cc2)cc1 | > 99%
O=C(O)CCc1ccc(-c2ccc(OC(F)(F)F)cc2)cc1OC(c1ccccc1)c1ccccc1 | > 99%

// each listed compound needs a value for inhibition at 3 µM
1. CC(C)(C)c1ccc(CN(C(=O)C(=O)O)c2ccc(N3CCN(c4ccccc4)CC3)cc2)cc1
2. CC(C)(C)c1ccc(Oc2cc(-c3cccc(C(F)(F)F)c3)ccc2OCC(=O)O)cc1

1. 14%
2. > 99%

So, O=C(O)CCc1ccc(-c2ccc(OC(F)(F)F)cc2)cc1Oc1ccc(OC(F)(F)F)cc1 ? Its inhibition at 3 µM was > 99%

---

Can you tell me inhibition at 3 µM for the items I'm about to list?
# study_system: recombinant human PAI-1 (Homo sapiens)
# assay_explanation: Test Example 2: Human PAI-1 Inhibitory Activity (pH 7.4 HEPES buffer, 10 minutes incubation with two-chain tPA)
# Format: biochemical
# Set-up: purchased Molecular Innovations, Inc
# protocol_conditions: read-out: Inhibition Rate of PAI-1 Activity (%)

Example entries and their recorded answers appear below.
CC(C)(C)c1ccc(Sc2cc(-c3ccc(OC(F)(F)F)cc3)ccc2CC(=O)O)cc1 | > 99%
CCCCCOc1ccc(-c2ccc(Oc3ccc(C(C)(C)C)cc3)c(OCC(=O)O)c2)cc1 | > 99%
CC(C)(C)c1cccc(Oc2ccc(-c3ccc(OC(F)(F)F)cc3)cc2CCC(=O)O)c1 | > 99%
CC(C)c1ccc(Oc2ccc(CCC(=O)O)c(Oc3ccc(C(C)C)cc3)c2)cc1 | 98%
CCCCCOc1ccc(-c2cc(C)cc(C)c2)cc1N(CCCCc1ccccc1)C(=O)C(=O)O | > 99%
CC(CCOc1ccc(-c2ccc(OC(F)(F)F)cc2)cc1OCc1ccc(C(C)(C)C)cc1)C(=O)O (centres unmarked) | > 99%

Below are 3 compounds. Give each one its inhibition at 3 µM.
1. CCCCC(Nc1cc(-c2ccc(OC(F)(F)F)cc2)ccc1Oc1ccc(C(C)(C)C)cc1)C(=O)O (centres unmarked)
2. CCCCOc1cccc(Oc2cc(-c3ccc(OC(F)(F)F)cc3)ccc2CCC(=O)O)c1
3. CCCCCOc1ccc(-c2ccccc2)cc1N(CCCCc1ccccc1)C(=O)C(=O)O

96%
> 99%
92%
